Each item that follows carries a reported MIC.
Tested on: Pseudomonas aeruginosa ATCC 27853
Assay type: cell-based
Settings: ATCC 27853
Bridge positions count the residues as written; N and C are the ends. Square brackets hold non-standard residues; d marks the D form. Peptide text beside a SMILES is read from it. * marks the point of attachment. dOrn = NCCC[C@@H](N)C(=O)O; Nonanoyl = CCCCCCCCC(=O)*; X1 = CC[C@H](C)CCCCC(=O)*; dDab = NCC[C@@H](N)C(=O)O; Heptanoyl = CCCCCCC(=O)*; Orn = NCCC[C@H](N)C(=O)O; Dab = NCC[C@H](N)C(=O)O; Dap = NC[C@H](N)C(=O)O

{"columns": ["compound", "measured target", "MIC"],
 "data": [
  ["CCCCCCC(=O)N[C@@H](CCN)C(=O)N[C@H](C(=O)N[C@@H](CCCN)C(=O)N[C@H]1CCNC(=O)[C@H]([C@@H](C)O)NC(=O)[C@H](CCN)NC(=O)[C@H](CCN)NC(=O)[C@H](CC(C)C)NC(=O)[C@@H](Cc2ccccc2)NC(=O)[C@H](CCN)NC1=O)[C@@H](C)O [Compound 49] (Heptanoyl-[Dab]T[Orn][Dab][Dab][dF]L[Dab][Dab]T; lactam 4-C)", "Pseudomonas aeruginosa ATCC 27853", "0.03 µg/mL"],
  ["CCCCCCCCC(=O)N[C@@H](CCN)C(=O)N[C@H](C(=O)N[C@@H](CN)C(=O)N[C@H]1CCNC(=O)[C@H]([C@@H](C)O)NC(=O)[C@H](CCN)NC(=O)[C@H](CCN)NC(=O)[C@H](CC(C)C)NC(=O)[C@@H](Cc2ccccc2)NC(=O)[C@H](CCN)NC1=O)[C@@H](C)O [Compound 40] (Nonanoyl-[Dab]T[Dap][Dab][Dab][dF]L[Dab][Dab]T; lactam 4-C)", "Pseudomonas aeruginosa ATCC 27853", "0.06 µg/mL"],
  ["CCCCCCC(=O)N[C@@H](CCN)C(=O)N[C@H](C(=O)N[C@H](CCCN)C(=O)N[C@H]1CCNC(=O)[C@H]([C@@H](C)O)NC(=O)[C@H](CCN)NC(=O)[C@H](CCN)NC(=O)[C@H]([C@@H](C)O)NC(=O)[C@@H](Cc2ccccc2)NC(=O)[C@H](CCN)NC1=O)[C@@H](C)O [Compound 24] (Heptanoyl-[Dab]T[dOrn][Dab][Dab][dF]T[Dab][Dab]T; lactam 4-C)", "Pseudomonas aeruginosa ATCC 27853", "0.5 µg/mL"],
  ["CC[C@H](C)CCCCC(=O)N[C@@H](CCN)C(=O)N[C@H](C(=O)N[C@@H](CN)C(=O)N[C@H]1CCNC(=O)[C@H]([C@@H](C)O)NC(=O)[C@H](CCN)NC(=O)[C@H](CCN)NC(=O)[C@H](CC(C)C)NC(=O)[C@@H](Cc2ccccc2)NC(=O)[C@H](CCN)NC1=O)[C@@H](C)O [Compound 36] (X1-[Dab]T[Dap][Dab][Dab][dF]L[Dab][Dab]T; lactam 4-C)", "Pseudomonas aeruginosa ATCC 27853", "0.03 µg/mL"],
  ["CC[C@H](C)CCCCC(=O)N[C@@H](CN)C(=O)N[C@H](C(=O)N[C@H](CCN)C(=O)N[C@H]1CCNC(=O)[C@H]([C@@H](C)O)NC(=O)[C@H](CCN)NC(=O)[C@H](CCN)NC(=O)[C@H](CC(C)C)NC(=O)[C@@H](CC(C)C)NC(=O)[C@H](CCN)NC1=O)[C@@H](C)O [Compound 96] (X1-[Dap]T[dDab][Dab][Dab][dL]L[Dab][Dab]T; lactam 4-C)", "Pseudomonas aeruginosa ATCC 27853", "0.5 µg/mL"]
]}

----------
Tested on: Pseudomonas aeruginosa ATCC 27853
Assay type: cell-based
Details: ATCC 27853
Bridge positions count the residues as written; N and C are the ends. Square brackets hold non-standard residues; d marks the D form. Peptide text beside a SMILES is read from it. * marks the point of attachment. Heptanoyl(6-Me) = CC(C)CCCCC(=O)*; dOrn = NCCC[C@@H](N)C(=O)O; Heptanoyl = CCCCCCC(=O)*; Octanoyl = CCCCCCCC(=O)*; Orn = NCCC[C@H](N)C(=O)O; Dab = NCC[C@H](N)C(=O)O; Dap = NC[C@H](N)C(=O)O
Quick reference for MIC among some molecules

{"columns": ["molecule", "MIC [µg/mL]"],
 "data": [
  ["CCCCCCC(=O)N[C@@H](CCN)C(=O)N[C@H](C(=O)N[C@H](CCCN)C(=O)N[C@H]1CCNC(=O)[C@H]([C@@H](C)O)NC(=O)[C@H](CCN)NC(=O)[C@H](CCN)NC(=O)[C@H](CC(C)C)NC(=O)[C@@H](Cc2ccccc2)NC(=O)[C@H](CCN)NC1=O)[C@@H](C)O [Compound 44] (Heptanoyl-[Dab]T[dOrn][Dab][Dab][dF]L[Dab][Dab]T; lactam 4-C)", 0.5],
  ["CCCCCCCC(=O)N[C@@H](CCN)C(=O)N[C@H](C(=O)N[C@H](CO)C(=O)N[C@H]1CCNC(=O)[C@H]([C@@H](C)O)NC(=O)[C@H](CCN)NC(=O)[C@H](CCN)NC(=O)[C@H]([C@@H](C)O)NC(=O)[C@@H](Cc2ccccc2)NC(=O)[C@H](CCCN)NC1=O)[C@@H](C)O [Compound 68] (Octanoyl-[Dab]T[dS][Dab][Orn][dF]T[Dab][Dab]T; lactam 4-C)", 64],
  ["CC(C)CCCCC(=O)N[C@@H](CCN)C(=O)N[C@H](C(=O)N[C@H](CO)C(=O)N[C@H]1CCNC(=O)[C@H]([C@@H](C)O)NC(=O)[C@H](CCN)NC(=O)[C@H](CCN)NC(=O)[C@H]([C@@H](C)O)NC(=O)[C@@H](Cc2ccccc2)NC(=O)[C@H](CN)NC1=O)[C@@H](C)O [Compound 62] ({Heptanoyl(6-Me)}-[Dab]T[dS][Dab][Dap][dF]T[Dab][Dab]T; lactam 4-C)", 64]
]}

----------
Tested on: Escherichia coli ATCC BAA-2523
Type: cell-based
Details: ATCC BAA-2523
Bridge positions count the residues as written; N and C are the ends. Square brackets hold non-standard residues; d marks the D form. Peptide text beside a SMILES is read from it. * marks the point of attachment. Dab(CH2SO3H) = N[C@@H](CCNCS(=O)(=O)O)C(=O)O; Heptanoyl(6-Me) = CC(C)CCCCC(=O)*; dOrn = NCCC[C@@H](N)C(=O)O; X1 = CC[C@H](C)CCCCC(=O)*; Octanoyl = CCCCCCCC(=O)*; dDap = NC[C@@H](N)C(=O)O; Dab = NCC[C@H](N)C(=O)O; Dap = NC[C@H](N)C(=O)O
The molecules listed here are annotated with their MIC.
measure: MIC (µg/mL)

{"columns": ["molecule", "val"],
 "data": [
  ["CC(C)CCCCC(=O)N[C@@H](CCN)C(=O)N[C@H](C(=O)N[C@@H](CN)C(=O)N[C@H]1CCNC(=O)[C@H]([C@@H](C)O)NC(=O)[C@H](CCN)NC(=O)[C@H](CCN)NC(=O)[C@H]([C@@H](C)O)NC(=O)[C@@H](Cc2ccccc2)NC(=O)[C@H](CCNCS(=O)(=O)O)NC1=O)[C@@H](C)O [Compound 118] ({Heptanoyl(6-Me)}-[Dab]T[Dap][Dab][Dab(CH2SO3H)][dF]T[Dab][Dab]T; lactam 4-C)", 0.06],
  ["CC[C@H](C)CCCCC(=O)N[C@@H](CCN)C(=O)N[C@H](C(=O)N[C@H](CN)C(=O)N[C@H]1CCNC(=O)[C@H]([C@@H](C)O)NC(=O)[C@H](CCN)NC(=O)[C@H](CCN)NC(=O)[C@H](CC(C)C)NC(=O)[C@@H](Cc2ccccc2)NC(=O)[C@H](CCN)NC1=O)[C@@H](C)O [Compound 31] (X1-[Dab]T[dDap][Dab][Dab][dF]L[Dab][Dab]T; lactam 4-C)", 0.03],
  ["CCCCCCCC(=O)N[C@@H](CCN)C(=O)N[C@H](C(=O)N[C@H](CCCN)C(=O)N[C@H]1CCNC(=O)[C@H]([C@@H](C)O)NC(=O)[C@H](CCN)NC(=O)[C@H](CCN)NC(=O)[C@H](CC(C)C)NC(=O)[C@@H](Cc2ccccc2)NC(=O)[C@H](CCN)NC1=O)[C@@H](C)O [Compound 43] (Octanoyl-[Dab]T[dOrn][Dab][Dab][dF]L[Dab][Dab]T; lactam 4-C)", 0.03]
]}

----------
System: Pseudomonas aeruginosa ATCC 27853
Assay type: cell-based
Conditions: ATCC 27853
Description: The minimal inhibitory concentration (MIC) was determined by the broth microdilution method according to the recommended procedures of the Clinical and Laboratory Standards Institute (CLSI). An appropriate amount of the cyclic lipopeptide compounds prepared in Examples 1-120 and the reference standards were weighed and dissolved in sterile pure water. […]
Bridge positions count the residues as written; N and C are the ends. Square brackets hold non-standard residues; d marks the D form. Peptide text beside a SMILES is read from it. * marks the point of attachment. Heptanoyl(6-Me) = CC(C)CCCCC(=O)*; Sulfomethyl = O=S(=O)(O)C*; Nonanoyl = CCCCCCCCC(=O)*; dDab = NCC[C@@H](N)C(=O)O; Heptanoyl = CCCCCCC(=O)*; Orn = NCCC[C@H](N)C(=O)O; dDap = NC[C@@H](N)C(=O)O; Dab = NCC[C@H](N)C(=O)O; Dap = NC[C@H](N)C(=O)O
measure: MIC (mg/L)

{"columns": ["compound", "modifier sign", "val"],
 "data": [
  ["CC(C)CCCCC(=O)N[C@@H](CCN)C(=O)N[C@H](C(=O)N[C@@H](CN)C(=O)N[C@H]1CCNC(=O)[C@H]([C@@H](C)O)NC(=O)[C@H](CCN)NC(=O)[C@H](CCN)NC(=O)[C@H]([C@@H](C)OCS(=O)(=O)O)NC(=O)[C@@H](Cc2ccccc2)NC(=O)[C@H](CCN)NC1=O)[C@@H](C)O [Compound 114] ({Heptanoyl(6-Me)}-[Dab]T[Dap][Dab][Dab][dF]T(Sulfomethyl)[Dab][Dab]T; lactam 4-C)", "=", 0.25],
  ["CCCCCCCCC(=O)N[C@@H](CCN)C(=O)N[C@H](C(=O)N[C@H](CN)C(=O)N[C@H]1CCNC(=O)[C@H]([C@@H](C)O)NC(=O)[C@H](CCN)NC(=O)[C@H](CCN)NC(=O)[C@H](CC(C)C)NC(=O)[C@@H](Cc2ccccc2)NC(=O)[C@H](CCN)NC1=O)[C@@H](C)O [Compound 35] (Nonanoyl-[Dab]T[dDap][Dab][Dab][dF]L[Dab][Dab]T; lactam 4-C)", "=", 0.06],
  ["CC(C)CCCCC(=O)N[C@@H](CN)C(=O)N[C@H](C(=O)N[C@H](CCN)C(=O)N[C@H]1CCNC(=O)[C@H]([C@@H](C)O)NC(=O)[C@H](CCN)NC(=O)[C@H](CCN)NC(=O)[C@H](CC(C)C)NC(=O)[C@@H](CC(C)C)NC(=O)[C@H](CCN)NC1=O)[C@@H](C)O [Compound 97] ({Heptanoyl(6-Me)}-[Dap]T[dDab][Dab][Dab][dL]L[Dab][Dab]T; lactam 4-C)", "=", 0.5],
  ["CC(C)CCCCC(=O)N[C@@H](CCCN)C(=O)N[C@H](C(=O)N[C@H](CO)C(=O)N[C@H]1CCNC(=O)[C@H]([C@@H](C)O)NC(=O)[C@H](CCN)NC(=O)[C@H](CCN)NC(=O)[C@H]([C@@H](C)O)NC(=O)[C@@H](Cc2ccccc2)NC(=O)[C@H](CCN)NC1=O)[C@@H](C)O [Compound 57] ({Heptanoyl(6-Me)}-[Orn]T[dS][Dab][Dab][dF]T[Dab][Dab]T; lactam 4-C)", "=", 64],
  ["CCCCCCC(=O)N[C@@H](CCN)C(=O)N[C@H](C(=O)N[C@H](CO)C(=O)N[C@H]1CCNC(=O)[C@H]([C@@H](C)O)NC(=O)[C@H](CCN)NC(=O)[C@H](CN)NC(=O)[C@H]([C@@H](C)O)NC(=O)[C@@H](Cc2ccccc2)NC(=O)[C@H](CCN)NC1=O)[C@@H](C)O [Compound 74] (Heptanoyl-[Dab]T[dS][Dab][Dab][dF]T[Dap][Dab]T; lactam 4-C)", ">", 64]
]}
